Measured growth inhibition of individual entries
# Test Description: NCI Yeast Anticancer Drug Screen. Data for the wt2 strain (AID 169);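 also: 0% = growth of vehicle-treated yeast cultures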
# Test Conditions: S. cerevisiae wt2 strain growth inhibition; at 3.7 µM; stronger effect = higher value
The panel holds about 79,000 compounds, 15% with a hit somewhere; the sample as a whole holds those more often.
Write down the numeric answer in % and omit the unit.

>>> recorded_number("O=[N+]([O-])c1ccc(/C=C\\c2ccc3c(c2)OCO3)c([N+](=O)[O-])c1")
-3
>>> recorded_number("O=C(Nc1ccc(Cl)cc1)c1cc2cc(N=Nc3ccccc3Cl)ccc2oc1=O")
15
>>> recorded_number("CCC(/C=C/c1ccccc1)=N\\Nc1ccc(Cl)c(Cl)c1")
-5
>>> recorded_number("Nc1cc2ccccc2cc1N")
-18
>>> recorded_number("COC1/C=C\\C=C(/C)C(=O)NC2=CC(=O)C(=O)C(=C2O)CC(C)CC(OC)C(O)C(C)/C=C(\\C)C1OC(N)=O (configuration not stated)")
7
>>> recorded_number("Clc1nc(Cl)nc(Nc2cccc3ccccc23)n1")
15
>>> recorded_number("S=C(NCc1ccccn1)N/N=C/c1ccccn1")
98
>>> recorded_number("CC(C)OP(=O)(OC(C)C)/C(Cl)=N/Nc1ccc([N+](=O)[O-])cc1")
5

QUERY: Param item = CCOC(=O)CC1(C)/C(=N\Nc2ccc([N+](=O)[O-])cc2[N+](=O)[O-])CCC2C1CCC1(C)C(C(C)CCCC(C)C)CCC21 (configuration not stated) ; retrieve measured growth inhibition.
RESULT: 1

QUERY: Please give the measured growth inhibition for this molecule: N#CCCC1C(C#N)C2(Cl)CC1(Cl)C(Cl)=C2Cl (configuration not stated)
RESULT: 5

QUERY: Query (molecule): O=C1NC(c2cccc(OCc3ccccc3)c2)Nc2ccccc21 (configuration not stated) ; field requested: growth inhibition
RESULT: -11

QUERY: Look at this molecule and give its reported growth inhibition. COC(=N)c1ccc(O)c(C)c1
RESULT: 0

QUERY: I am curious: what growth inhibition value has been reported for CC(C)CCC[C@@H](C)[C@H]1CC[C@H]2[C@@H]3CC[C@H]4C[C@H](N)CC[C@]4(C)[C@H]3CC[C@]12C ?
RESULT: -8

QUERY: Quick check: growth inhibition of COc1ccc(N=c2cc(-c3ccccc3)oc3ccccc23)cc1 ?
RESULT: -2
